# System Under Test: EGFR (Homo sapiens, UniProt P00533)
# Sequence (P00533 25-1210): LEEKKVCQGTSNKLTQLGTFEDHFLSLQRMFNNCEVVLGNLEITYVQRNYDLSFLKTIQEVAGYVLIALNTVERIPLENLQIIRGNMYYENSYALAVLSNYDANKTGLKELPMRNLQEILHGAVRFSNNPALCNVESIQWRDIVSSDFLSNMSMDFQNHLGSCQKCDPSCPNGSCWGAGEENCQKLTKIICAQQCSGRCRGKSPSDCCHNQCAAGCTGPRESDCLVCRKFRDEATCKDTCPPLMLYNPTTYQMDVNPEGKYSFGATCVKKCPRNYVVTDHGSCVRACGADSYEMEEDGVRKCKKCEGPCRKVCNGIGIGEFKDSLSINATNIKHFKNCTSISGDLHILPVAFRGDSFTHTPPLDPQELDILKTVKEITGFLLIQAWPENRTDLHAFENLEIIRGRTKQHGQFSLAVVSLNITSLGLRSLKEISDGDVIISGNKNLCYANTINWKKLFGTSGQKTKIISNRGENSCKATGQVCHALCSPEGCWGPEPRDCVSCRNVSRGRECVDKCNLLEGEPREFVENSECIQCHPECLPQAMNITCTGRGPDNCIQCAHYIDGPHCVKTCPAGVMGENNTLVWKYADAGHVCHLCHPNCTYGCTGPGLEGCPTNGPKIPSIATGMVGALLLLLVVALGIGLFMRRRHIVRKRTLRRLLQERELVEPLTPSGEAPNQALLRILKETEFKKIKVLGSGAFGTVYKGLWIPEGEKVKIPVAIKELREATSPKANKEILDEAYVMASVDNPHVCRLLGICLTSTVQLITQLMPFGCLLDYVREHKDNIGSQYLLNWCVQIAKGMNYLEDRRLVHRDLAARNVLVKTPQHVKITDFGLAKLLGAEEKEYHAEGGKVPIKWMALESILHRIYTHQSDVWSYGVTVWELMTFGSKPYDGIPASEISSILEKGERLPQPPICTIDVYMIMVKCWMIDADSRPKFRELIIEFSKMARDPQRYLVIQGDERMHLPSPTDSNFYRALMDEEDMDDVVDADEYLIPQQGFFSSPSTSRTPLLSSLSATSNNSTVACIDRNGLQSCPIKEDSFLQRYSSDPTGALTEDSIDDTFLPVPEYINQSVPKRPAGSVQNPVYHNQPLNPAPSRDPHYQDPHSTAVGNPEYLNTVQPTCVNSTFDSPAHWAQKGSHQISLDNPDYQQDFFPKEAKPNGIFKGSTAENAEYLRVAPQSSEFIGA
# Measurement Description: EGFR Western blot in MCF7
# Type: cell-based
# Run Conditions: Western blot at MTT-IC50
// values below are reported EGFR MCF7 % Inhibition
Quantity Kind: EGFR MCF7 % Inhibition (%)

>>> value_observed("CC(=O)Oc1ccccc1C(=O)N1C/C(=C\\c2ccccc2)C(=O)/C(=C/c2ccccc2)C1 [Compound 5a]")
90.3
>>> value_observed("COc1ccc(/C=C2\\CN(C(=O)c3cc(Cl)ccc3OC(C)=O)C/C(=C\\c3ccc(OC)cc3)C2=O)cc1 [Compound 5m]")
62.4
>>> value_observed("COc1cc(/C=C2\\CN(C(=O)c3ccccc3OC(C)=O)C/C(=C\\c3cc(OC)c(OC)c(OC)c3)C2=O)cc(OC)c1OC [Compound 5h]")
58.9
>>> value_observed("COc1ccc(/C=C2\\CN(C(=O)c3ccccc3OC(C)=O)C/C(=C\\c3ccc(OC)c(OC)c3)C2=O)cc1OC [Compound 5g]")
61.2

---

# System Under Test: EGFR (Homo sapiens)
# Measurement Description: EGFR Western blot in MCF7
# Assay type: cell-based
# Run Conditions: Western blot at MTT-IC50, control RQ 4.226
// values below are reported EGFR MCF7 RQ (relative quantification)
Quantity Kind: EGFR MCF7 RQ (relative quantification)

>>> value_observed("CC(=O)Oc1ccc(Cl)cc1C(=O)N1C/C(=C\\c2cccs2)C(=O)/C(=C/c2cccs2)C1")
1.731
>>> value_observed("CC(=O)Oc1ccc(Cl)cc1C(=O)N1C/C(=C\\c2ccc(Cl)cc2)C(=O)/C(=C/c2ccc(Cl)cc2)C1")
1.31
>>> value_observed("COc1ccc(/C=C2\\CN(C(=O)c3ccccc3OC(C)=O)C/C(=C\\c3ccc(OC)c(OC)c3)C2=O)cc1OC")
1.638
>>> value_observed("CC(=O)Oc1ccccc1C(=O)N1C/C(=C\\c2cccs2)C(=O)/C(=C/c2cccs2)C1")
1.540
>>> value_observed("CC(=O)Oc1ccccc1C(=O)N1C/C(=C\\c2ccc(Br)cc2)C(=O)/C(=C/c2ccc(Br)cc2)C1")
1.52
>>> value_observed("CC(=O)Oc1ccccc1C(=O)N1C/C(=C\\c2ccccc2)C(=O)/C(=C/c2ccccc2)C1")
0.41
>>> value_observed("CC(=O)Oc1ccc(Cl)cc1C(=O)N1C/C(=C\\c2ccc(Br)cc2)C(=O)/C(=C/c2ccc(Br)cc2)C1")
1.4
>>> value_observed("CC(=O)Oc1ccc(Cl)cc1C(=O)N1C/C(=C\\c2ccccc2)C(=O)/C(=C/c2ccccc2)C1")
1.45
>>> value_observed("COc1cc(/C=C2\\CN(C(=O)c3cc(Cl)ccc3OC(C)=O)C/C(=C\\c3cc(OC)c(OC)c(OC)c3)C2=O)cc(OC)c1OC")
1.3

---

// values below are reported VEGFR2 HCT116 RQ (relative quantification)
# System Under Test: VEGFR-2 (Homo sapiens, UniProt P35968)
# Sequence (P35968 20-1356): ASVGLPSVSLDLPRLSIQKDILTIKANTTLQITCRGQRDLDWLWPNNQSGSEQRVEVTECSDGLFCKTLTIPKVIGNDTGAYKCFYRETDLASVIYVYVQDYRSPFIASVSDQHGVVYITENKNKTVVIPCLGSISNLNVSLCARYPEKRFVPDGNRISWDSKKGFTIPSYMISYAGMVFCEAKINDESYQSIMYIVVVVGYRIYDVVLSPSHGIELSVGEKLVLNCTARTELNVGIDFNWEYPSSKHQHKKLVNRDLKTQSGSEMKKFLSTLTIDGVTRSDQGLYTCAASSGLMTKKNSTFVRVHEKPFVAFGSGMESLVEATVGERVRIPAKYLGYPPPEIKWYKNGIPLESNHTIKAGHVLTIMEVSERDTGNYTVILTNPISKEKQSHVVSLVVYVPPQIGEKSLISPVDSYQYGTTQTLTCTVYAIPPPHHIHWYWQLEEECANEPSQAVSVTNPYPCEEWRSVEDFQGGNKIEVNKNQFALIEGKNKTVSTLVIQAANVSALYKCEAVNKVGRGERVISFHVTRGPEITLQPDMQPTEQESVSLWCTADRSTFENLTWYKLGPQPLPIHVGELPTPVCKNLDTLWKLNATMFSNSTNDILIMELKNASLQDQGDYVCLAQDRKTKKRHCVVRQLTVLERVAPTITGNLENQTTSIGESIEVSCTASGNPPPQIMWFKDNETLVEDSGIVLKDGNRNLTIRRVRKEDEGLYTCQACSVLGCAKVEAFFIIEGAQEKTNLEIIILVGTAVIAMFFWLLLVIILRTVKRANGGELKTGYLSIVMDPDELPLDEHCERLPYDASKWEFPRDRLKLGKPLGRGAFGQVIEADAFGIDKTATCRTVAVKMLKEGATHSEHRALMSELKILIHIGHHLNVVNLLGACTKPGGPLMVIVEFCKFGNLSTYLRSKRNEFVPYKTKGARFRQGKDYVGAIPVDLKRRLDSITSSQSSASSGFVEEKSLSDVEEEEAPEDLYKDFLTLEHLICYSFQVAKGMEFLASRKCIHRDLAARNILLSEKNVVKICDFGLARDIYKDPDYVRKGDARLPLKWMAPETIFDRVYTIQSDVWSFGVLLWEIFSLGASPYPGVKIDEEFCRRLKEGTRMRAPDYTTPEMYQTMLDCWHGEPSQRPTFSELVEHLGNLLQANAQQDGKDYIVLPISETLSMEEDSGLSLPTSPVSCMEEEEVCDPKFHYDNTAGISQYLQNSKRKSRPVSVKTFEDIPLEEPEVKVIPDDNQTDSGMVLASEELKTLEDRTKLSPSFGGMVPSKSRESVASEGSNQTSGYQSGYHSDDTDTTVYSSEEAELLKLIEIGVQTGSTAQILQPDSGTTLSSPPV
# Measurement Description: VEGFR-2 Western blot in HCT116
# Type: cell-based
# Run Conditions: Western blot at MTT-IC50, control RQ 3.817
Quantity Kind: VEGFR2 HCT116 RQ (relative quantification)

>>> value_observed("CC(=O)Oc1ccccc1C(=O)N1C/C(=C\\c2ccc(Cl)cc2)C(=O)/C(=C/c2ccc(Cl)cc2)C1")
1.02
>>> value_observed("CC(=O)Oc1ccccc1C(=O)N1C/C(=C\\c2cccs2)C(=O)/C(=C/c2cccs2)C1")
2.297
>>> value_observed("COc1ccc(/C=C2\\CN(C(=O)c3cc(Cl)ccc3OC(C)=O)C/C(=C\\c3ccc(OC)cc3)C2=O)cc1")
1.13
>>> value_observed("CC(=O)Oc1ccc(Cl)cc1C(=O)N1C/C(=C\\c2ccc(Cl)cc2)C(=O)/C(=C/c2ccc(Cl)cc2)C1")
1.2
>>> value_observed("CC(=O)Oc1ccccc1C(=O)N1C/C(=C\\c2ccc(C)cc2)C(=O)/C(=C/c2ccc(C)cc2)C1")
2.209

---

# System Under Test: UniProt:P00533
# Measurement Description: EGFR Western blot in HCT116
# Type: cell-based
# Run Conditions: Western blot at MTT-IC50, control RQ 4.0382
// values below are reported EGFR HCT116 RQ (relative quantification)
Quantity Kind: EGFR HCT116 RQ (relative quantification)

>>> value_observed("CC(=O)Oc1ccccc1C(=O)N1C/C(=C\\c2ccc(Cl)cc2)C(=O)/C(=C/c2ccc(Cl)cc2)C1")
1.5
>>> value_observed("COc1ccc(/C=C2\\CN(C(=O)c3cc(Cl)ccc3OC(C)=O)C/C(=C\\c3ccc(OC)c(OC)c3)C2=O)cc1OC")
1.610
>>> value_observed("COc1ccc(/C=C2\\CN(C(=O)c3ccccc3OC(C)=O)C/C(=C\\c3ccc(OC)c(OC)c3)C2=O)cc1OC")
1.554
>>> value_observed("CC(=O)Oc1ccccc1C(=O)N1C/C(=C\\c2ccc(Br)cc2)C(=O)/C(=C/c2ccc(Br)cc2)C1")
1.377
>>> value_observed("CC(=O)Oc1ccc(Cl)cc1C(=O)N1C/C(=C\\c2ccc(Br)cc2)C(=O)/C(=C/c2ccc(Br)cc2)C1")
1.336
>>> value_observed("CC(=O)Oc1ccccc1C(=O)N1C/C(=C\\c2ccc(C)cc2)C(=O)/C(=C/c2ccc(C)cc2)C1")
1.664
>>> value_observed("CC(=O)Oc1ccccc1C(=O)N1C/C(=C\\c2ccccc2)C(=O)/C(=C/c2ccccc2)C1")
1.24

---

# System Under Test: VEGFR-2 (Homo sapiens, UniProt P35968)
# Measurement Description: VEGFR-2 Western blot in MCF7
# Format: cell-based
# Run Conditions: Western blot at MTT-IC50
Lab note: cut-off is 40%. Strictly less in VEGFR2 MCF7 % Inhibition is yes. Exactly 40% or more is no.

>>> class_name("CC(=O)Oc1ccc(Cl)cc1C(=O)N1C/C(=C\\c2ccccc2)C(=O)/C(=C/c2ccccc2)C1 [Compound 5j]")
"no"
>>> class_name("CC(=O)Oc1ccccc1C(=O)N1C/C(=C\\c2ccc(Br)cc2)C(=O)/C(=C/c2ccc(Br)cc2)C1 [Compound 5d]")
"no"
>>> class_name("COc1ccc(/C=C2\\CN(C(=O)c3ccccc3OC(C)=O)C/C(=C\\c3ccc(OC)c(OC)c3)C2=O)cc1OC [Compound 5g]")
"yes"
>>> class_name("CC(=O)Oc1ccccc1C(=O)N1C/C(=C\\c2ccc(F)cc2)C(=O)/C(=C/c2ccc(F)cc2)C1 [Compound 5b]")
"no"
>>> class_name("COc1ccc(/C=C2\\CN(C(=O)c3ccccc3OC(C)=O)C/C(=C\\c3ccc(OC)cc3)C2=O)cc1 [Compound 5f]")
"no"

---

# System Under Test: EGFR (Homo sapiens)
# Measurement Description: EGFR Western blot in HCT116
# Assay type: cell-based
# Run Conditions: Western blot at MTT-IC50
Quantity Kind: EGFR HCT116 % Inhibition (%)

>>> value_observed("CC(=O)Oc1ccccc1C(=O)N1C/C(=C\\c2ccccc2)C(=O)/C(=C/c2ccccc2)C1")
69.3
>>> value_observed("CC(=O)Oc1ccccc1C(=O)N1C/C(=C\\c2ccc(Cl)cc2)C(=O)/C(=C/c2ccc(Cl)cc2)C1")
62.9
>>> value_observed("CC(=O)Oc1ccccc1C(=O)N1C/C(=C\\c2ccc(Br)cc2)C(=O)/C(=C/c2ccc(Br)cc2)C1")
65.9
>>> value_observed("CC(=O)Oc1ccc(Cl)cc1C(=O)N1C/C(=C\\c2ccc(Br)cc2)C(=O)/C(=C/c2ccc(Br)cc2)C1")
66.9
>>> value_observed("CC(=O)Oc1ccc(Cl)cc1C(=O)N1C/C(=C\\c2ccc(Cl)cc2)C(=O)/C(=C/c2ccc(Cl)cc2)C1")
63.4
>>> value_observed("COc1cc(/C=C2\\CN(C(=O)c3cc(Cl)ccc3OC(C)=O)C/C(=C\\c3cc(OC)c(OC)c(OC)c3)C2=O)cc(OC)c1OC")
68.2
>>> value_observed("O=c1[nH]cc(F)c(=O)[nH]1 [Compound 5-FU, 5-fluorouracil, reference compound]")
81.2

---

# System Under Test: EGFR (Homo sapiens, UniProt P00533)
# Measurement Description: EGFR Western blot in MCF7
# Format: cell-based
# Run Conditions: Western blot at MTT-IC50
Quantity Kind: EGFR MCF7 % Inhibition (%)

>>> value_observed("CC(=O)Oc1ccccc1C(=O)N1C/C(=C\\c2ccc(C)cc2)C(=O)/C(=C/c2ccc(C)cc2)C1")
59.6
>>> value_observed("CC(=O)Oc1ccccc1C(=O)N1C/C(=C\\c2ccc(Br)cc2)C(=O)/C(=C/c2ccc(Br)cc2)C1")
64.0
>>> value_observed("CC(=O)Oc1ccc(Cl)cc1C(=O)N1C/C(=C\\c2ccc(Br)cc2)C(=O)/C(=C/c2ccc(Br)cc2)C1")
66.9
>>> value_observed("COc1ccc(/C=C2\\CN(C(=O)c3ccccc3OC(C)=O)C/C(=C\\c3ccc(OC)cc3)C2=O)cc1")
76.3
>>> value_observed("CC(=O)Oc1ccccc1C(=O)N1C/C(=C\\c2ccc(Cl)cc2)C(=O)/C(=C/c2ccc(Cl)cc2)C1")
85.6
>>> value_observed("O=c1[nH]cc(F)c(=O)[nH]1 [Compound 5-FU, 5-fluorouracil, reference compound]")
85.8
>>> value_observed("CC(=O)Oc1ccc(Cl)cc1C(=O)N1C/C(=C\\c2cccs2)C(=O)/C(=C/c2cccs2)C1")
59.0
